I'd appreciate it if you could supply koff values for the items below.
Target: T1, hK1 (human tissue kallikrein 1), recombinant (human, UniProt P06870 25-262)
T1 construct: Expressed in P. pastoris from KLK1 cDNA and purified; enzymatically active; also called KLK1; Recombinant (Pichia) Kallikrein
Assay: SPR
Answers are plain numbers, in s⁻¹.

* M0095-H10 (Fab, V domains shown) VH: EVQLLESGGGLVQPGGSLRLSCAASGFTFSNYKMQWVRQAPGKGLEWVSSIYSSGGKTVYADSVKGRFTISRDNSKNTLYLQMNSLRAEDTAVYYCARTPGYNYFDYWGQGTLVTVSS VL: DIQMTQSPSTLSASVGDRVTITCRASQSISSWLAWYQQKPGKAPKLLIYTASSLESGVPSRFSAGGSGTEFTLTISSLQPDDFGTYYCQQYNSYSLTFGGGTKVEIKR | 0.00918

Now, please, on to the next binder.
Task item: Query (binder): M0099-D05 (Fab, V domains shown) VH: EVQLLESGGGLVQPGGSLRLSCAASGFTFSNYIMSWVRQAPGKGLEWVSSIWPSGGHTRYADSVKGRFTISRDNSKNTLYLQMNSLRAEDTAVYYCARAGSYYAGDYWGQGTLVTVSS VL: DIQMTQSPGTLSLSPGERATLSCRASQTVSSNYLAWYQQKPGLAPRLLIYGVSNRAAGIPDRFSGRGSGTDFTLIINRLEPEDFAVYYCQHYGSSAFTFGRGTKLEIER ; field requested: koff
Reply: 0.00578

Source: patent US7329737
